Entry source: PubChem BioAssay (NCATS)

Test system: HB3
test.method.notes: qHTS profiling for inhibitors of Plasmodium falciparum proliferation (AID 504749); further: nearly all actives have a fitted effect of over 60% in size
settings: P. falciparum in erythrocytes, SYBR Green DNA, 72 h; series mostly up to 28.7 µM
Inconclusive results are not listed. Active and inactive are the calls of the source. The call rests on the fitted dose curve; in most records, active means well fitted inhibition curve with a large enough effect; inconclusive means small, poorly fitted or top-dose-only effect; inactive means flat fitted curve, though single readings scatter.
Classes used: label 1 = active, label 0 = inactive

1. C[C@H]1CC[C@@H]2[C@@H](C)[C@H]3[C@H](C[C@H]4[C@@H]5CC=C6CC(O[C@@H]7O[C@H](CO)[C@H](O)[C@H](O[C@@H]8O[C@H](CO)[C@@H](O)[C@H](O)[C@H]8O)[C@H]7O[C@H]7O[C@@H](C)[C@H](O)[C@@H](O)[C@H]7O)CC[C@]6(C)[C@H]5CC[C@]34C)N2C1 (some centres not stated) = label 0
2. CCC(N)Cc1c[nH]c2ccccc12 (configuration not stated) = label 0
3. O=C(CS(=O)C(c1ccccc1)c1ccccc1)NO (configuration not stated) = label 0
4. O=P(O)(O)C(Cl)(Cl)P(=O)(O)O = label 0
5. CCCCCl = label 0
6. C/C(=C\c1csc(C)n1)[C@@H]1C[C@@H]2O[C@]2(C)CCC[C@H](C)[C@H](O)[C@@H](C)C(=O)C(C)(C)[C@@H](O)CC(=O)O1 = label 1
7. CC(=O)OC1CN2CCC1CC2 (configuration not stated) = label 0
8. CCC1(C)CC(=O)NC(=O)C1 = label 0
9. CC(C)(O)C1C2OC(=O)C1C1(O)CC3OC34C(=O)OC2C14C (configuration not stated) = label 0
10. CCOC(=O)c1ccccc1C(=O)OCC = label 0
11. CCCCCCCCCC(=O)O[C@H]1CC[C@H]2[C@@H]3CCC4=CC(=O)CC[C@]4(C)[C@H]3CC[C@]12C = label 0
12. CCOc1ccc2c3c1O[C@H]1[C@@H](O)C=C[C@H]4[C@@H](C2)N(C)CC[C@@]341 = label 0
13. CCC1(c2ccccc2)C(=O)NC(=O)NC1=O = label 0
14. CC(=O)O[C@H]1CC[C@H]2[C@@H]3CCC4=CC(=O)CCC4=C3C=C[C@]12C = label 0
15. [O]=[Cr](=[O])([OH])[O][Cr](=[O])(=[O])[OH] = label 0
16. CCC(C)(S(=O)(=O)CC)S(=O)(=O)CC = label 0
17. [O]=[Cd] = label 0
18. CC[N+](C)(CC)CCOC(=O)C(O)(c1ccccc1)c1ccccc1 = label 0
19. CNC(C)C(O)c1ccc(O)cc1 (configuration not stated) = label 0
20. [Cl-].[Cl-].[Hg+2] = label 0
21. CCCN1CCCC2Cc3[nH]ncc3CC21 (configuration not stated) = label 0
22. CN1CCCC(=C(c2cccs2)c2cccs2)C1 = label 0
23. O=S(=O)(O)c1cc(O)ccc1O = label 0
24. c1cc2c(c(NC3=NCCN3)c1)CCCC2 = label 0
25. O=C1CN=C(c2ccccc2)c2cc(Cl)ccc2N1CC1CC1 = label 0
26. COc1ccc2c(c1OC)C(=O)OC2C1c2cc3c(cc2CCN1C)OCO3 (configuration not stated) = label 0
27. c1csc(C2(N3CCCCC3)CCCCC2)c1 = label 0

* * *

Test system: JCK
test.method.notes: qHTS profiling for inhibitors of Plasmodium falciparum proliferation (AID 504749); further: nearly all actives have a fitted effect of over 60% in size
settings: P. falciparum in erythrocytes, SYBR Green DNA, 72 h; series mostly up to 28.7 µM
Records with an inconclusive call do not appear. Activity calls are given as the source filed them. The call rests on the fitted dose curve; in most records, active means well fitted inhibition curve with a large enough effect; inconclusive means small, poorly fitted or top-dose-only effect; inactive means flat fitted curve, though single readings scatter.
Outcome codes: active, inactive

1. c1ccc2cc(CC3=NCCN3)ccc2c1 = inactive
2. Oc1cc(Cl)c(Cl)cc1Cl = inactive
3. O=CC=O = inactive
4. C/C(=C\c1csc(C)n1)[C@@H]1C[C@@H]2O[C@]2(C)CCC[C@H](C)[C@H](O)[C@@H](C)C(=O)C(C)(C)[C@@H](O)CC(=O)O1 = active
5. CCOC(=O)c1ccccc1C(=O)OCC = inactive
6. COC([CH2][Hg])CNC(=O)c1ccccc1OCC(=O)O (stereo unspecified) = inactive
7. CCC(C)(S(=O)(=O)CC)S(=O)(=O)CC = inactive
8. CCOP(=O)(OCC)O/C(=C/Cl)c1ccc(Cl)cc1Cl = inactive
9. O=C1CCO1 = inactive
10. O=c1[nH]c(=O)n(Cl)c(=O)n1Cl = inactive
11. c1ccc(C2(N3CCCC3)CCCCC2)cc1 = inactive

* * *

test.method.notes: Primary qHTS for Vero E6 cytotoxicity: counterscreen for inhibitors of SARS-S pseudo-typed particle cell entry (AID 1479150)
settings: cell viability; series mostly up to 57.1 µM
Records with an inconclusive call do not appear. The source made the active and inactive calls. Calls come from the whole dose curve.
Possible outcomes: t for active, f for inactive

1) CC(C)(O)[C@@H]1[C@H]2OC(=O)[C@@H]1[C@]1(O)C[C@H]3O[C@]34C(=O)O[C@H]2[C@]14C = f
2) O=C(O)C(Cl)(Cl)Cl = f
3) COC([CH2][Hg])CNC(=O)c1ccccc1OCC(=O)O (stereo not given) = t
4) NCC(O)c1cccc(O)c1 (stereo not given) = f
5) COc1ccc(OC)c(C(O)C(C)N)c1 (stereo not given) = f
6) Cn1sc(Cl)cc1=O = f
7) c1ccc2sc(SNC3CCCCC3)nc2c1 = f
8) C[C@]12CC[C@H]3[C@@H](CCC4=C(O)C(=O)CC[C@@H]43)[C@@H]1CC[C@@H]2OC(=O)CCC1CCCC1 = f
9) CCNCC(O)c1cccc(O)c1 (stereo not given) = f
10) Cc1ccccc1-n1c(CF)nc2ccc(N)cc2c1=O = f

* * *

Test system: JEG-3
test.method.notes: Primary qHTS to identify gynecologic anti-cancer compounds using libraries of approved drugs and bioactive compounds (AID 1345084); further: nearly all actives have a fitted effect of over 55% in size
settings: Gynecologic cancer cell panel viability, ATPlite luminescence, 48 h; series mostly up to 57.5 µM
Results filed as inconclusive are left out. Activity calls are given as the source filed them. The call rests on the fitted dose curve; in most records, active means well fitted cell-killing curve with a large enough effect; inconclusive means small, poorly fitted or top-dose-only effect, or effect the other way; inactive means flat fitted curve, though single readings scatter.
assay.readout: activity change, negative = cytotoxicity

1) CC(=O)OC1CC(O)C2(C)C(CC(OC(C)=O)C3(C)C2CCC2(C)C(c4ccoc4)C(=O)C4OC423)C1(C)C (stereo not drawn) = inactive
2) C[C@H](NC(=O)Cc1cc(F)cc(F)c1)C(=O)N[C@@H]1N=C(c2ccccc2)c2ccccc2N(C)C1=O = inactive
3) COc1cc2c(cc1OC)[C@@]13CCN4CC5=CCO[C@H]6CC(=O)N2[C@H]1[C@H]6[C@H]5C[C@H]43 = inactive

* * *

Test system: SKOV3
test.method.notes: Primary qHTS to identify gynecologic anti-cancer compounds using libraries of approved drugs and bioactive compounds (AID 1345084); further: nearly all actives have a fitted effect of over 55% in size
settings: Gynecologic cancer cell panel viability, ATPlite luminescence, 48 h; series mostly up to 57.5 µM
Records with an inconclusive call do not appear. Active and inactive are the calls of the source. The call rests on the fitted dose curve; in most records, active means well fitted cell-killing curve with a large enough effect; inconclusive means small, poorly fitted or top-dose-only effect, or effect the other way; inactive means flat fitted curve, though single readings scatter.
Outcome codes: class 1 = active, class 0 = inactive

1) COc1cc(CCNCc2ccccc2O)c(OC)cc1C#N = class 0
2) COC1C(O)C(C)OC(OC2C(CO)O[C@@H](O[C@@H]3CC4CCC5C(CC[C@]6(C)[C@@H](C7=CC(=O)OC7)CC[C@]56O)[C@@]4(C)[C@H](O)C3)C(O)C2O)C1O (stereo not given in full) = class 1
3) CC1=C2C(=O)C3[C@@H](CC=C4C[C@@H](O)CC[C@@]43C)[C@@H]2CC[C@]12O[C@@H]1C[C@H](C)CN[C@H]1[C@H]2C (stereo not given in full) = class 0
4) COC(=O)N1CCN(C(=O)Cc2ccc(Cl)c(Cl)c2)[C@@H](CN2CCCC2)C1 = class 0
5) CN1[C@H]2C[C@H](OC(=O)[C@H](CO)c3ccccc3)C[C@@H]1[C@@H](O)C2 = class 0
6) CN1CCCC1CCOC(c1cc2nccc(C(=O)O)c2[nH]1)c1ccccc1Cl (stereo not given) = class 0
7) OCCCCC#Cc1cncc(OC[C@@H]2CCN2)c1 = class 0
8) CCN1C[C@]2(OC(=O)c3ccccc3NC(C)=O)CC[C@H](OC)[C@@]34[C@@H]2C[C@@H]([C@@H]13)[C@@]1(O)C[C@H](OC)[C@H]2C[C@@H]4[C@]1(O)[C@H]2OC = class 0
9) CC1C/C=C/C(O)C(O)CC/C=C/c2cc(O)cc(O)c2C(=O)O1 (stereo not given) = class 0
10) COC1C(O)C(OC2CCC3(C=O)C(CCC4C3CCC3(C)C(C5=CC(=O)OC5)CCC43O)C2)OC(C)C1OC1OC(CO)C(O)C(O)C1O (stereo not given) = class 1
11) CCCCCOc1cc2c(cc1-c1cc(/C=C/C(=O)O)ccc1O)C(C)(C)CCC2(C)C = class 0
12) CCc1[nH]c2ccc(OC)cc2c1CCN(C)C = class 0
13) CCCN1CCO[C@H]2c3cc(O)ccc3OC[C@@H]21 = class 0
14) CC12CCC3C(CCC4(O)CC(O)CCC34C=O)C1(O)CCC2C1=CC(=O)OC1 (stereo not given) = class 1
15) COC(=O)C12C(=O)C(C)(O)C(=O)C1(C)C(C)=CC1C34CCC(OC3=O)C(C)(CO)C4CCC12C (stereo not given) = class 0
16) C=C1[C@@H]2CC[C@@]3(C)[C@H](c4ccoc4)OC(=O)C[C@]13O[C@H]1CC(=O)C(C)(C)[C@H](C(OC(C)=O)C(=O)OC)[C@]12C (stereo not given in full) = class 0
17) CN(C)CCc1c[nH]c2ccc(CN3CCN(C)S3(=O)=O)cc12 = class 0
18) COc1cc(C(=O)O[C@H]2[C@@H]3C=CO[C@@H](O[C@@H]4O[C@H](CO)[C@@H](O)[C@H](O)[C@H]4O)[C@@H]3[C@@]3(CO)O[C@@H]23)ccc1O = class 0
19) COC1=CC(=O)O[C@@H](/C=C/c2ccccc2)C1 = class 0
20) C/C=C(\C)C(=O)OC1CC2C(C)(C)OC(=O)CC(OC(C)=O)C2(C)C2CC(OC(=O)C(C)C)C3(C)C(c4ccoc4)CC4OC43C12C (stereo not given) = class 0
